# Test Target: α2AAR (Homo sapiens)
# Construct: host or cells: HEK293 (membranes)
# Sequence (P08913 1-465): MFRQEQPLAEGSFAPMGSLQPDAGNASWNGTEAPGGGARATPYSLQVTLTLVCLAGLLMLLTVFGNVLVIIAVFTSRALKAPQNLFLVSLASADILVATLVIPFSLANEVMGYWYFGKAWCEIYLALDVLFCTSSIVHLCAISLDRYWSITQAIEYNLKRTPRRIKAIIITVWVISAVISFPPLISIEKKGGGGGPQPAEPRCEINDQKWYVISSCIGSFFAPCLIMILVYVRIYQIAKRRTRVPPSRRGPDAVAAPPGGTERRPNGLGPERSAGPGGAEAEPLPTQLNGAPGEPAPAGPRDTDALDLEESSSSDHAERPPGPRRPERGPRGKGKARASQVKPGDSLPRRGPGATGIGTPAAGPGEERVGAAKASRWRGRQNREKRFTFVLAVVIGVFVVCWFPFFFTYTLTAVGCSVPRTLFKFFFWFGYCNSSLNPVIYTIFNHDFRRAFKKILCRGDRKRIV
# Experiment Description: α2AAR binding assay ([3H]-RX 821002 radioligand)
# Run Conditions: [3H]-RX 821002 0.5 nM, HEK293 membranes; read-out: α2A affinity (Ki)
In this section, each of the compounds is paired with its reported Ki.

# count of solved cases: 4
# Compound, Ki
records = [
    ("CONC(=O)c1cccc(C(c2c[nH]cn2)c2cccc(C)c2C)c1 (centres unmarked) [compound 1]", "50 to 250 nM"),
    ("Cc1cccc(C(c2cccc(NC(=O)CN3CCOCC3)c2)c2c[nH]cn2)c1C (centres unmarked)", "< 10 nM"),
    ("Cc1cccc(C(c2cccc(C(=O)NOC3CCOCC3)c2)c2c[nH]cn2)c1C (centres unmarked)", "< 10 nM"),
    ("Cc1cccc(C(c2cccc(NC(=O)CCN3CCCC3)c2)c2c[nH]cn2)c1C (centres unmarked)", "10 to 50 nM"),
]

What the record says about Cc1cccc(C(c2cccc(C(=O)CCC#N)c2)c2c[nH]cn2)c1C (centres unmarked) : Ki is 10 to 50 nM

What the record says about NC(=O)c1cccc(CC(Oc2c(Cl)cccc2Cl)C2=NCCN2)c1 (centres unmarked) : Ki is 50 to 250 nM

What the record says about CONC(=O)c1cc(CC(NC2=NCCS2)c2ccccc2OC)ccn1 (centres unmarked) : Ki is < 10 nM

What the record says about Cc1cccc(C(Cc2ccc(CC(=O)O)cc2)c2c[nH]cn2)c1C (centres unmarked) : Ki is 50 to 250 nM

What the record says about Cc1cccc(C(Cc2ccc(NS(C)(=O)=O)cc2)c2c[nH]cn2)c1C (racemic) : Ki is < 10 nM

What the record says about Cc1cccc(C(Cc2ccc(-c3nnn[nH]3)cc2)c2c[nH]cn2)c1C (centres unmarked) : Ki is 10 to 50 nM
